// data source = paper PMC9860126

- STUDY TARGET: HpNikR T92A (Helicobacter pylori G27, UniProt A1YSQ9 1-148, T92A)
- METHOD NOTES: fluorescence anisotropy; apo (no Ni); FA: 5 nM DNA, 20 mM Tris pH 7.6, 100 mM NaCl, 3 mM MgSO4, temperature not stated (Ni loading 1.2 eq NiSO4 per monomer at RT). EMSA: 20 mM Tris pH 7.5, 100 mM KCl, 3 mM MgCl2, 0.1% IGEPAL, 5% glycerol, 0.1 mg/ml herring sperm DNA, RT; gel with 800 uM NiSO4 at 4 C
- APPLIED CONDITIONS: protein: recombinant; tags: none stated; chain copies: 4; label: fluorescein on internal thymine (T14 of strand 1); blunt
Reported pKd values for a set of binders
Reminder that pKd means the negative base-10 logarithm of the concentration expressed in mol/L.

{"BINDER": "ureA-perf promoter 32 bp (dsDNA) DNA 1: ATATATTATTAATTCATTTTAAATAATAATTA DNA 2: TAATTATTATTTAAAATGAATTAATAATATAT", "pKd": 5.60}

// below: pKd requested for another binder
Noted for ureA promoter 32 bp (FA) (dsDNA) DNA 1: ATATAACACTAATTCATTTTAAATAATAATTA DNA 2: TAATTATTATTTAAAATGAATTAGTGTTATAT : its pKd reads 5.66
